System: OVCAR-4
Experiment: Growth inhibition of human OVCAR4 cells incubated for 48 hrs by sulforhodamine B assay
Format: functional
Settings: OVCAR-4, 48 h
Each entry below carries its reported GI50.
Provide the reading as a plain figure in µM.

# count of solved cases: 4
Cc1nc2cc(O)c(O)cc2cc1Oc1ccc(NC(=O)Nc2ccc(Cl)c(Cl)c2)cc1	9.73
COc1cc2cc(Oc3ccc(NC(=O)Nc4cc(C(F)(F)F)cc(C(F)(F)F)c4)cc3)c(C)nc2cc1OC	1.22
COc1cc2cc(Oc3ccc(NC(=O)Nc4ccc(Cl)c(Cl)c4)cc3)c(C)nc2cc1OC	2.67
COc1cc2cc(Oc3ccc(NC(=O)Nc4cccc(C(F)(F)F)c4)cc3)c(C)nc2cc1OC	2.3

Now consider the entry below.
Query GI50 on OVCAR-4 for COc1cc2cc(Oc3ccc(NC(=O)Nc4ccc(Cl)c(C(F)(F)F)c4)cc3)c(C)nc2cc1OC
1.37
